TESTED_ON: Serine/threonine-protein phosphatase PP1-alpha catalytic subunit (Homo sapiens)
PROCEDURE_TEXT: PP1 inhibition of glycogen phosphorylase dephosphorylation, late-stage follow-up, orthogonal assay for PP1 inhibitor probe project, biochemical, radiolabel, dose response, powder samples, set 2 (AID 652227)
ASSAY_CONDITIONS: purified PP1alpha, 32P/33P-phosphorylase dephosphorylation, scintillation
ASSAY_METRIC: IC50

Worked examples, 4 compounds total:
In [3]: df
Out[3]:
                                   compound  measured_result
0  CCn1c2ccccc2c2cc(NC(=O)COC(=O)c3ccc(NC(=O)CC#N)cc3)ccc21            38 µM
1  CCOC(=O)c1sc2nc3c(SCC(=O)O)cc(C(=O)c4cc(F)ccc4O)cn3c(=O)c2c1C          8.54 µM
2  COc1ccc(NC(=O)C2C3CCC(O3)C2C(=O)O)c(OC)c1 (stereo not given)          18.9 µM
3  N#Cc1c(-c2ccc(Cl)cc2)cc(-c2cccs2)nc1SCC(=O)O          21.9 µM

Could you now look at the following compound, please?
Query IC50 on Serine/threonine-protein phosphatase PP1-alpha catalytic subunit (Homo sapiens) for CN1CCN(C(c2ccccn2)c2cc(Cl)c3cccnc3c2O)CC1 (stereo not given)
4.89 µM
